Molecular target: Cytochrome P450 2C19 (Homo sapiens) (UniProt P33261)
Sequence (P33261 whole entry, looked up): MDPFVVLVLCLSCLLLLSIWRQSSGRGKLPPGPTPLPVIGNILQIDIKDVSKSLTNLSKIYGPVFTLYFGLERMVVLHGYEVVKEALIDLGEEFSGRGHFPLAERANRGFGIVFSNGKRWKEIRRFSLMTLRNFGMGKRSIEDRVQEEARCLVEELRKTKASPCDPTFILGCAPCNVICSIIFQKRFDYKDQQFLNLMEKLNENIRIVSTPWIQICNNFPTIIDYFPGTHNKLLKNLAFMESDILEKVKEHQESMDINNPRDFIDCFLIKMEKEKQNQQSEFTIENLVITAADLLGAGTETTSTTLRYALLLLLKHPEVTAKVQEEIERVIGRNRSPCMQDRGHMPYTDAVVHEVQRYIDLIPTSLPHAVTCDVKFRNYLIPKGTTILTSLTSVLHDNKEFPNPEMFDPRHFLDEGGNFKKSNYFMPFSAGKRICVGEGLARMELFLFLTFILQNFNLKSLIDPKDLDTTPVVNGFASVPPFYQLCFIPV
Assay: Cytochrome P450 Family 2 Subfamily C Member 19 (CYP2C19) small molecule antagonists: luciferase reporter qHTS assay (AID 1671197); further: nearly all actives have a fitted effect of over 65% in size
Details: P450-Glo CYP2C19 enzyme, luciferin luminescence, 1 h; series mostly up to 52.9 µM
Inconclusive results are not listed. Activity calls are given as the source filed them. The call rests on the fitted dose curve; in most records, active means well fitted inhibition curve with a large enough effect in the repeat runs; inconclusive means weak or mixed curves; inactive means no such curve, though single readings can be large or run the other way.
Entry note: the call must match one of 1 (yes) = active, 0 (no) = inactive

Input line: Record request — test call for O=C(O)c1cccc(-c2noc(-c3ccccc3F)n2)c1
Output line: 1 (yes)

Input line: Record request — test call for NC(=O)c1ccncc1
Output line: 0 (no)

Input line: Record request — test call for CC1(C)S[C@@H]2[C@H](NC(=O)C(c3ccccc3)S(=O)(=O)O)C(=O)N2[C@H]1C(=O)O (stereo not given in full)
Output line: 0 (no)

Input line: Record request — test call for O=C(O)C[C@H](NC(=O)OCc1ccccc1)C(=O)O
Output line: 0 (no)

Input line: Record request — test call for CC(=O)NC1(c2cccc(F)c2)CCN(CC[C@@]2(c3ccc(Cl)c(Cl)c3)CN(c3ccccc3)C(=O)CO2)CC1
Output line: 1 (yes)
